Assay: Cmax in CD rat at 10 mg/kg, po
Assay type: ADME, organism-based
Design: dose 10 mg/kg, route oral
Conditions: in vivo
PROPERTY_LABEL: Cmax
Answer with the number, then the unit.

*Q* GET /values?readout=Cmax&item= "COc1ccccc1-c1cc2c(-c3ccc(C(N)=O)c(C4CCCC4)c3)ccnc2[nH]1"
*A* 35 ng/mL

====

IC50 reference
Target: Glycogen synthase kinase-3 beta (Homo sapiens)
Sequence (P49841 whole entry): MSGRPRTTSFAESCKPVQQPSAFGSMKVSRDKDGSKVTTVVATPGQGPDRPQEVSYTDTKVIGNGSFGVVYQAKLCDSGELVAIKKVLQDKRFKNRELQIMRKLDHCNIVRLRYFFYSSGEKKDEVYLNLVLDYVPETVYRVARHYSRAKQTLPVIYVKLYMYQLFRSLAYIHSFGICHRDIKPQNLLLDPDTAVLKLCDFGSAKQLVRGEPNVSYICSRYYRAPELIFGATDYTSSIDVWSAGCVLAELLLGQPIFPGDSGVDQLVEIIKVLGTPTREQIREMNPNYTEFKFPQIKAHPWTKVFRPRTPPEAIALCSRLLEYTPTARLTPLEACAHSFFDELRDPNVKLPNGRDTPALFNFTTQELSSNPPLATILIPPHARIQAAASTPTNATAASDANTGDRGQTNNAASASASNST
Test: Inhibition of GSK3beta (unknown origin)
Express your answer in µM, writing the number without its unit.

*Q* GET /values?readout=IC50&item= "COc1ccccc1Nc1ncc(F)c(-c2ccc(C(N)=O)c(C(C)C)c2)n1"
*A* 7.94

*Q* GET /values?readout=IC50&item= "COc1ccccc1Nc1ncc(Cl)c(-c2ccc(C(N)=O)c(C(C)C)c2)n1"
*A* 20

*Q* GET /values?readout=IC50&item= "NC(=O)c1ccc(-c2ccnc(Nc3cc(-c4ccccc4)ccc3F)n2)cc1"
*A* 2.51

====

Biological target: Mitogen-activated protein kinase 8 (Homo sapiens)
Test: Inhibition of JNK1 (unknown origin)
PROPERTY_LABEL: pIC50
Units for pIC50: none; it is -log10 of a concentration expressed in mol/L.

The following compounds have reported results that may help.
# MOL, PROPERTY_LABEL, READING
rows = [
    ("CS(=O)(=O)Nc1ccc(-c2cc3c(-c4ccc(C(N)=O)cc4)ccnc3[nH]2)cc1", "pIC50", 7.20),
    ("CN(C)CCCNC(=O)c1cccc(-c2cc3c(-c4ccc(C(N)=O)cc4)ccnc3[nH]2)c1", "pIC50", 6.20),
    ("CN(C)Cc1ccc(-c2cc3c(-c4ccc(C(N)=O)cc4)ccnc3[nH]2)cc1", "pIC50", 7.10),
    ("Cc1cc(OCCN2CCOCC2)ccc1-c1cc2c(-c3ccc(C(N)=O)c(C(C)C)c3)ccnc2[nH]1", "pIC50", 5.70),
    ("Cc1cc(OCCN2CCOCC2)ccc1-c1cc2c(-c3ccc(C(N)=O)cc3)ccnc2[nH]1", "pIC50", 6.70),
]

*Q* Provide the documented pIC50 with Mitogen-activated protein kinase 8 (Homo sapiens) as the system for "COc1ccccc1Nc1nccc(-c2ccc(C(N)=O)c(C(C)C)c2)n1"
*A* 5.80

====

Experiment: Solubility of the compound in pH 7.4 phosphate buffer saline after 1 hr by chemiluminescence nitrogen detection method
Type: physicochemical
Details: phosphate buffered saline
solubility at 1 h reference
Express your answer in µM, writing the number without its unit.

The following molecules have reported results that may help.
# MOL, QUANTITY_UNIT, solubility at 1 h
measured = [
    ("CS(=O)(=O)Nc1ccc(-c2cc3c(-c4ccc(C(N)=O)cc4)ccnc3[nH]2)cc1", "µM", 5),
    ("Cc1ccc(CN2CCOCC2)cc1-c1cc2c(-c3ccc(C#N)c(C(C)C)c3)ccnc2[nH]1", "µM", 1),
]

# ---- query molecule ----
*Q* GET /values?readout=solubility at 1 h&item= "O=C(O)c1ccc(-c2c[nH]c3ncc(-c4ccccc4)cc23)cc1"
*A* 82

====

Experiment: Cmax in CD rat at 30 mg/kg, po
Assay type: ADME, organism-based
Parameters: dose 30 mg/kg, route oral
Details: in vivo
Cmax reference
Answer with the number, then the unit.

The following molecules have reported results that may help.
# MOL, Cmax
data = [
    ("Cc1ccc(CN2CCOCC2)cc1-c1cc2c(-c3ccc(C#N)c(C(C)C)c3)ccnc2[nH]1", "127 ng/mL"),
    ("Cc1cc(OCCN2CCOCC2)ccc1-c1cc2c(-c3ccc(C(N)=O)c(C(C)C)c3)ccnc2[nH]1", "374 ng/mL"),
]

*Q* GET /values?readout=Cmax&item= "Cc1cc(OCCN2CCOCC2)ccc1-c1cc2c(-c3ccc(C#N)c(C(C)C)c3)ccnc2[nH]1"
*A* 964 ng/mL

====

Assay: Ratio of drug level in brain to plasma in CD rat at 10 mg/kg, po
Type: ADME, organism-based
Conditions: read-out: BPR
PROPERTY_LABEL: Kp
The answer should be written as a number, with no unit following it.

*Q* GET /values?readout=Kp&item= "COc1ccccc1-c1cc2c(-c3ccc(C(N)=O)c(C4CCCC4)c3)ccnc2[nH]1"
*A* 3.2

====

Target: Inhibitor of nuclear factor kappa-B kinase subunit alpha (Homo sapiens, UniProt O15111)
Sequence (O15111 whole entry): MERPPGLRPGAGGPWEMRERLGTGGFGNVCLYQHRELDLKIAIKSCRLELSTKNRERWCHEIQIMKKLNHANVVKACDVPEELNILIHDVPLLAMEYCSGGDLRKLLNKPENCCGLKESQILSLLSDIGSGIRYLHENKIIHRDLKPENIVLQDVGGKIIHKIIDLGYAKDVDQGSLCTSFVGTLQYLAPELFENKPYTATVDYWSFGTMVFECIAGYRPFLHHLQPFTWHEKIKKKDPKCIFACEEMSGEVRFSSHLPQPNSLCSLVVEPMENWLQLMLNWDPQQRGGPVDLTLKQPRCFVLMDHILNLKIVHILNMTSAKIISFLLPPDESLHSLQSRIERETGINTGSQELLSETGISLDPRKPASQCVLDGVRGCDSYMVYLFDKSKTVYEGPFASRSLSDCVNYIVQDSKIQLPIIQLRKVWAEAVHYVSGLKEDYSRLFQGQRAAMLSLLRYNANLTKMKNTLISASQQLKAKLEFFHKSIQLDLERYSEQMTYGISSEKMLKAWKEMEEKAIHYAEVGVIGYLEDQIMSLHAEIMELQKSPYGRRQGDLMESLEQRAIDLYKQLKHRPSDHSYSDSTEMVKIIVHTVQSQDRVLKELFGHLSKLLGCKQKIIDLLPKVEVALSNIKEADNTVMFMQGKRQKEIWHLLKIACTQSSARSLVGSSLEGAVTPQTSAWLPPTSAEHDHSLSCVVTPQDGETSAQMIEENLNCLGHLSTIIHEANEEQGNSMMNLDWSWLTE
Experiment: Inhibition of IKK1 (unknown origin)
PROPERTY_LABEL: pIC50
Units for pIC50: none; it is -log10 of a concentration expressed in mol/L.

The following molecules have reported results that may help.
# MOL, pIC50
data = [
    ("Cc1cc(OCCN2CCOCC2)ccc1-c1cc2c(-c3ccc(C(N)=O)cc3)ccnc2[nH]1", 6.90),
    ("CS(=O)(=O)Nc1ccc(-c2cc3c(-c4ccc(C(N)=O)cc4)ccnc3[nH]2)cc1", 7.50),
    ("Cc1ccc(CN2CCOCC2)cc1-c1cc2c(-c3ccc(C(N)=O)cc3)ccnc2[nH]1", 5.50),
    ("Cc1c(OCCN2CCOCC2)cccc1-c1cc2c(-c3ccc(C(N)=O)cc3)ccnc2[nH]1", 6.80),
    ("Cc1c(CN2CCOCC2)cccc1-c1cc2c(-c3ccc(C(N)=O)cc3)ccnc2[nH]1", 7.00),
]

*Q* GET /values?readout=pIC50&item= "Cc1cc(OCCN2CCOCC2)ccc1-c1cc2c(-c3ccc(C(N)=O)c(C(C)C)c3)ccnc2[nH]1"
*A* 5.60

*Q* GET /values?readout=pIC50&item= "Cc1ccc(CN2CCOCC2)cc1-c1cc2c(-c3ccc(C(N)=O)c(C(C)C)c3)ccnc2[nH]1"
*A* 6.80

*Q* GET /values?readout=pIC50&item= "COc1ccccc1-c1cc2c(-c3ccc(C(N)=O)cc3)ccnc2[nH]1"
*A* 6.80

*Q* GET /values?readout=pIC50&item= "CN(C)Cc1cccc(-c2cc3c(-c4ccc(C(N)=O)cc4)ccnc3[nH]2)c1"
*A* 7.10

*Q* GET /values?readout=pIC50&item= "CS(=O)(=O)Nc1cccc(-c2cc3c(-c4ccc(C(N)=O)cc4)ccnc3[nH]2)c1"
*A* 6.80

====

pIC50 reference
Biological target: Calcium/calmodulin-dependent protein kinase kinase 2 (Mus musculus)
Sequence (Q8C078 whole entry): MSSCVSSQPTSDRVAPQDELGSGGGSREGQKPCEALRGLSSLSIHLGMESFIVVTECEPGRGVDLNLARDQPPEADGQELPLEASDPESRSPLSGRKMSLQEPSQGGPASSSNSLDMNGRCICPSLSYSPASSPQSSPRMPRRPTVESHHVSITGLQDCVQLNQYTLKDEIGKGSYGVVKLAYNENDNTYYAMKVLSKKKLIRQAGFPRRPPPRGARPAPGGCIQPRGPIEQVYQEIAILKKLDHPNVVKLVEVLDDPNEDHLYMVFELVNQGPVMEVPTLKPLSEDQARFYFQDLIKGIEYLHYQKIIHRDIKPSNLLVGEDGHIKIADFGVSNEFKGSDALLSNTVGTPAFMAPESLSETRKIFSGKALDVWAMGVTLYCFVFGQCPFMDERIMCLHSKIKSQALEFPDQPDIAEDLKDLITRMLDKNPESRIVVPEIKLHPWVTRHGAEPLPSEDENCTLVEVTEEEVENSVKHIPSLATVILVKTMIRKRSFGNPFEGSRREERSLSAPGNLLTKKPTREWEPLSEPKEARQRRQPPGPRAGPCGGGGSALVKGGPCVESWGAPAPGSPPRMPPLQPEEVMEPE
Assay: Inhibition of CAMKK2 in mouse N39 cells assessed as decrease in AMPKalpha phosphorylation at T172 preincubated for 80 mins followed by […] addition by ELISA
Format: cell-based
pIC50: −log10 of the molar value.

The following molecules have reported results that may help.
# MOL, pIC50
measured = [
    ("COc1ccccc1Nc1nccc(-c2ccc(C(=O)O)cc2)n1", "< 5.00"),
    ("CS(=O)(=O)Nc1cccc(-c2cc3c(-c4ccc(C(N)=O)cc4)ccnc3[nH]2)c1", 5.50),
    ("NC(=O)c1ccc(-c2c[nH]c3ncc(-c4ccccc4OC(F)(F)F)cc23)cc1C1CCCC1", "< 5.00"),
]

*Q* GET /values?readout=pIC50&item= "COc1ccccc1-c1cnc2[nH]cc(-c3ccc(C(N)=O)c(C4CCCC4)c3)c2c1"
*A* < 5.00

*Q* GET /values?readout=pIC50&item= "COc1ccccc1Nc1ncc(Cl)c(-c2ccc(C(N)=O)c(C(C)C)c2)n1"
*A* < 5.00

====

Target: Mitogen-activated protein kinase 8 (Homo sapiens, UniProt P45983)
Sequence (P45983 whole entry): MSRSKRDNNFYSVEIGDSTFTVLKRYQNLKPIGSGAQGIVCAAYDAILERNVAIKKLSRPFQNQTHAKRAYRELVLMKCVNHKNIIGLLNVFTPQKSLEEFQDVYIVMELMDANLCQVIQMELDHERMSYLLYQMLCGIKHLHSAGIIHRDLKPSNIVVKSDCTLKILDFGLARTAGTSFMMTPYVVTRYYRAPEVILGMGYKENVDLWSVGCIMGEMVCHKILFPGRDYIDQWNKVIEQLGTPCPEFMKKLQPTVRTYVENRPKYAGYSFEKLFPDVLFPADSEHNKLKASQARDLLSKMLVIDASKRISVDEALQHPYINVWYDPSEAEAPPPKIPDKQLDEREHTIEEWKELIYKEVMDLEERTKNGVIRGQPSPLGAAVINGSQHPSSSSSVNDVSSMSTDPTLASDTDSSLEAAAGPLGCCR
Test: Inhibition of JNK1 (unknown origin)
IC50 reference
Express your answer in nM, writing the number without its unit.

# MOL, IC50, nM
rows = [
    ("Cc1cc(CN2CCOCC2)ccc1-c1cc2c(-c3ccc(C(N)=O)cc3)ccnc2[nH]1", 631),
    ("COc1ccccc1Nc1nccc(-c2ccc(C(=O)O)c(C(C)C)c2)n1", 3160),
    ("O=C(O)c1ccc(-c2ccnc(Nc3cccc(-c4ccccc4)c3)n2)cc1", 398),
]

*Q* Provide the documented IC50 with Mitogen-activated protein kinase 8 (Homo sapiens, UniProt P45983) as the system for "Cc1ccc(CN2CCOCC2)cc1-c1cc2c(-c3ccc(C(N)=O)c(C(C)C)c3)ccnc2[nH]1"
*A* 631

====

solubility at 1 h reference
Test: Solubility of the compound in pH 7.4 phosphate buffer saline after 1 hr by chemiluminescence nitrogen detection method
Type: physicochemical
Settings: phosphate buffered saline
Express your answer in µM, writing the number without its unit.

The following compounds have reported results that may help.
# MOL, QUANTITY_UNIT, solubility at 1 h
data = [
    ("N#Cc1ccc2c(-c3ccc(C(N)=O)c(C4CCCC4)c3)c[nH]c2n1", "µM", 7),
    ("COc1ccccc1Nc1ncc(F)c(-c2ccc(C(N)=O)c(C(C)C)c2)n1", "µM", 11),
    ("COC(=O)c1ccc(-c2c[nH]c3ncc(-c4ccccc4)cc23)cc1", "µM", 5),
    ("NC(=O)c1ccc(-c2c[nH]c3ncc(-c4ccccc4OC(F)(F)F)cc23)cc1C1CCCC1", "µM", 2),
    ("CC(C)Cc1cc(-c2c[nH]c3ncc(-c4ccccc4)cc23)ccc1C(=O)O", "µM", 333),
    ("N#Cc1ccc2c(-c3ccc(C(=O)O)cc3)c[nH]c2n1", "µM", 235),
]

*Q* GET /values?readout=solubility at 1 h&item= "Cc1cc(CN2CCOCC2)ccc1-c1cc2c(-c3ccc(C(N)=O)cc3)ccnc2[nH]1"
*A* 18

*Q* GET /values?readout=solubility at 1 h&item= "COc1ccccc1-c1cnc2[nH]cc(-c3ccc(C(N)=O)c(C4CCCC4)c3)c2c1"
*A* 1

*Q* GET /values?readout=solubility at 1 h&item= "NC(=O)c1ccc(-c2c[nH]c3ncc(-c4ccccc4C(F)(F)F)cc23)cc1C1CCCC1"
*A* 12

*Q* GET /values?readout=solubility at 1 h&item= "Cc1cc(OCCN2CCOCC2)ccc1-c1cc2c(-c3ccc(C(N)=O)cc3)ccnc2[nH]1"
*A* 11

*Q* GET /values?readout=solubility at 1 h&item= "COc1ccccc1-c1cc2c(-c3ccc(C(N)=O)cc3)ccnc2[nH]1"
*A* 16

*Q* GET /values?readout=solubility at 1 h&item= "NC(=O)c1ccc(-c2c[nH]c3ncc(-c4ccccc4Oc4ccccc4)cc23)cc1"
*A* 9

*Q* GET /values?readout=solubility at 1 h&item= "COc1ccccc1-c1cc2c(-c3ccc(C(N)=O)c(C4CCCC4)c3)ccnc2[nH]1"
*A* 7

*Q* GET /values?readout=solubility at 1 h&item= "N#CCc1ccccc1-c1cnc2[nH]cc(-c3ccc(C(N)=O)c(C4CCCC4)c3)c2c1"
*A* 96

*Q* GET /values?readout=solubility at 1 h&item= "CC(C)c1cc(-c2c[nH]c3nc(C#N)ccc23)ccc1C(N)=O"
*A* 14

*Q* GET /values?readout=solubility at 1 h&item= "Cc1c(OCCN2CCOCC2)cccc1-c1cc2c(-c3ccc(C(N)=O)cc3)ccnc2[nH]1"
*A* 17

*Q* GET /values?readout=solubility at 1 h&item= "CS(=O)(=O)Nc1cccc(-c2cc3c(-c4ccc(C(N)=O)cc4)ccnc3[nH]2)c1"
*A* 13

*Q* GET /values?readout=solubility at 1 h&item= "NC(=O)c1ccc(-c2ccnc(Nc3cccc(-c4ccccc4)c3)n2)cc1"
*A* 3

*Q* GET /values?readout=solubility at 1 h&item= "CCc1cc(-c2c[nH]c3ncc(-c4ccccc4)cc23)ccc1C(=O)O"
*A* 178
